Listed compounds paired with reported pEC50
# Test system: CHRF288-11
# assay-details: Secondary dose-response HTS, Cell Titer Glo
# Assay type: cell-based, human
# run-conditions: Homo sapiens; secondary HTS, 72 h, average of triplicate; read-out: EC50 CHRF288-11
Please note pEC50 is a logarithmic value: minus log10 of concentration in mol/L. Answer with that number alone.

{"compound": "C[C@@H]1O[C@@H](O[C@H]2C[C@@H](O)[C@]3(CO)[C@H]4[C@H](O)C[C@]5(C)[C@@H](C6=CC(=O)OC6)CC[C@]5(O)[C@@H]4CC[C@]3(O)C2)[C@H](O)[C@H](O)[C@H]1O [Ouabain, reference compound]", "pEC50": 7.40}

The recorded pEC50 for CC(C)=CCC[C@]1(C)C=Cc2c(O)c3c(c(CC=C(C)C)c2O1)O[C@]12C(=C[C@@H]4C[C@H]1C(C)(C)O[C@@]2(C/C=C(/C)C(=O)O)C4=O)C3=O [Gambogic acid, reference compound] is 6.66

The recorded pEC50 for Nc1ccn([C@@H]2O[C@H](CO)[C@@H](O)C2(F)F)c(=O)n1 is 8.52

The recorded pEC50 for CO[C@H]1C(=O)[C@]2(C)[C@@H](OC)C[C@H]3OC[C@@]3(OC(C)=O)[C@H]2[C@H](OC(=O)c2ccccc2)[C@]2(O)C[C@H](OC(=O)[C@H](O)[C@@H](NC(=O)OC(C)(C)C)c3ccccc3)C(C)=C1C2(C)C is 9.00
